Assay: qHTS Primary assay for Inhibitors of Plasmodium falciparum Dd2 growth in vitro; further: nearly all actives have a fitted effect of over 65% in size
Details: P. falciparum Dd2 growth, SYBR Green, 72 h; series mostly up to 28.9 µM
Text: Malaria, a parasitic disease spread to humans through the bite of a Plasmodium infected Anopheles mosquito, continues to be a global health burden affecting millions of people, with an estimated 228 million cases and 405,000 deaths in 2018. […] Malaria-vivax Assay Protocol: PROTOCOL TABLE (as described by Inglese et al., 2007) SEQUENCE No. (e.g., 1, 2, 3, etc.); […] […] Compound Management for Quantitative High-Throughput Screening. […]
About 5,300 (4.4%) of roughly 120,000 compounds were called active. Roughly 22% stayed inconclusive and do not appear here. The call rests on the fitted dose curve; in most records, active means well fitted inhibition curve with a large enough effect; inconclusive means small, poorly fitted or top-dose-only effect; inactive means no such curve, though single readings can be large or run the other way. The sample holds actives, similar compounds and a random draw of the others, so the mix is not that of the screen.
I would appreciate it if you answered using one of these outcomes: active, inactive

Assay outcome for O=C(COc1ccccc1)NCc1ccc2c(c1)CCN2C(=O)c1ccc(F)cc1 : what was it? inactive

Assay outcome for Cc1cc(=O)n(CC(=O)Nc2cccc([N+](=O)[O-])c2)c(-n2nc(C)cc2C)n1 : what was it? inactive

Assay outcome for O=C(c1ccc2cc[nH]c2n1)N1CCOCC1 : what was it? inactive

Assay outcome for CN(C)c1ccc(C(CNS(=O)(=O)c2cc(F)ccc2F)N2CCOCC2)cc1 (stereo not given) : what was it? inactive

Assay outcome for O=C(NCCC1CCN(C(=O)Nc2cccc(F)c2)CC1)c1ccco1 : what was it? inactive

Assay outcome for Cn1c(C(=O)Nc2cccc(C(F)(F)F)c2)cc2c(=O)n3ccccc3nc21 : what was it? inactive

Assay outcome for CC(C)(O)CCc1ccc(C(=O)N2CCOc3ccc(Cl)cc3C2)cc1 : what was it? inactive

Assay outcome for O=C(CCc1ccccc1)NCc1ccc2c(c1)CCN2C(=O)c1ccccc1 : what was it? inactive

Assay outcome for COc1ccc(CCC(=O)NCc2ccc3c(c2)CCN3C(=O)c2ccc(F)cc2)cc1 : what was it? active

Assay outcome for O=c1n(CC2CC2)nc2n1CCC(NS(=O)(=O)Cc1ccccc1)CC2 (stereo not given) : what was it? inactive

Assay outcome for O=C(c1ccccn1)N1CCC(N(C(=O)NCCc2ccccc2)C2CCOCC2)CC1 : what was it? inactive

Assay outcome for Oc1ccccc1CN1CCC(O)(c2csc(CN3CCN(c4ccccn4)CC3)n2)CC1 : what was it? active

Assay outcome for O=C(CC1CCCC1)N1CCOc2ccc(CN3CCc4ccccc4C3)cc2C1 : what was it? active

Assay outcome for Cc1cccc(C(=O)Nc2ccc(-c3nc4ccccc4s3)c(C)c2)c1 : what was it? inactive

Assay outcome for Cc1cccc(CC(=O)N2CCC(c3noc(COCC4CC4)n3)CC2)c1 : what was it? inactive

###

test: qHTS Primary assay for Inhibitors of Plasmodium falciparum Dd2 growth in vitro; further: nearly all actives have a fitted effect of over 65% in size; settings: P. falciparum Dd2 growth, SYBR Green, 72 h; series mostly up to 28.9 µM
In all, about 120,000 compounds went through this assay and about 5,300 (4.4%) were called active. Another 22% or so got no clear call; they are omitted. The call rests on the fitted dose curve; in most records, active means well fitted inhibition curve with a large enough effect; inconclusive means small, poorly fitted or top-dose-only effect; inactive means no such curve, though single readings can be large or run the other way. The full list was thinned out, with actives kept by preference.
I would appreciate it if you answered using one of these outcomes: TRUE (active), FALSE (inactive)

Assay outcome for C[C@@H]1CN(C(=O)c2ccc(-c3ccn[nH]3)cc2)CC[C@@]1(O)C1CCOCC1 : what was it? FALSE

Assay outcome for O=C(CC1COCCN1)NCCc1nc(-c2ccccn2)no1 (stereo not drawn) : what was it? FALSE

Assay outcome for Cc1ccc(Cl)cc1N(C)C(=O)C1CCCN(c2ncnc3onc(-c4ccc(F)cc4)c23)C1 (stereo not drawn) : what was it? TRUE

Assay outcome for COc1ccc(-c2noc(-c3cccn3CC(=O)Nc3ccccc3)n2)cc1F : what was it? TRUE

Assay outcome for CN(C)C(=O)c1nc(-c2cccnc2)c2ccccn12 : what was it? FALSE

Assay outcome for COc1ccc(Cl)cc1NC(=O)CSc1nc(=O)[nH]c2c1CCCC2 : what was it? FALSE

Assay outcome for CCn1ncc(N2CCC(NC(=O)CCOC)CC2)cc1=O : what was it? FALSE

Assay outcome for Cc1cc(OC2CN([S+](=O)([O-])c3ccccc3)C2)ccc1F : what was it? FALSE

Assay outcome for Cc1cc(=O)[nH]c(NCCNC(=O)c2cc(-c3cccn3C)n[nH]2)n1 : what was it? FALSE

Assay outcome for O=C(Cn1cccc1-c1nc(-c2ccccc2)no1)Nc1ccccc1F : what was it? TRUE

Assay outcome for COc1ccc(OC)c(-c2noc(N3CCN(c4cc(Cl)ccc4C)CC3)n2)c1 : what was it? TRUE

Assay outcome for CC(C)OC(=O)c1ccc(NC(=O)Cn2nc3c(cc2=O)CCCCC3)cc1 : what was it? FALSE

Assay outcome for O=C(Cc1cccc(Cl)c1)NCc1nnc2ccc(-c3ccccc3)nn12 : what was it? FALSE
